Numbers sourced from PubChem BioAssay (Tox21).

Property: activity change, negative = inhibition; scope: individual compounds
# Experiment Summary: qHTS assay to identify small molecule antagonists of the sonic hedgehog signaling (Shh) pathway (AID 1259369); note: % is set by controls: 0 for no effect and ±100 for the full control effect; nearly all actives have a fitted effect of over 45% in size
# Condition Set: NIH/3T3 Gli1-Luc reporter, Shh antagonist, luminescence 24 h; series mostly up to 92.4 µM
Inconclusive results are not listed. Calls of active or inactive are those of the source. Calls come from the whole dose curve.

These recorded examples may help you get a feel for the data.
| Compound | Measurement Name | Measured |
| --- | --- | --- |
| O=C(O)CN(CCN(CC(=O)O)CC(=O)O)CC(=O)O | activity change, negative = inhibition | 12.7% [at 3.27 µM] (inactive) |
| C[C@H]1NCc2cc(-c3ccc4c(=O)c(C(=O)O)cn(C5CC5)c4c3OC(F)F)ccc21 | activity change, negative = inhibition | 4.27% [at 19 µM] (inactive) |
| C[C@@H](O)[C@H](N)C(=O)O | activity change, negative = inhibition | 10.6% [at 19 µM] (inactive) |

Q: For the compound NC[C@H]1O[C@H](O[C@H]2[C@H](O[C@@H]3O[C@H](CO)[C@@H](O)[C@H]3O)C(O)[C@H](N)C[C@@H]2N)[C@H](N)[C@@H](O)[C@@H]1O (stereo not given in full) , what activity change, negative = inhibition is on record?
Ans: -6.57% [at 8.39 µM] (inactive)

Q: For the compound "CC(C)(C)CC(C)(C)c1ccc(Nc2ccc(C(C)(C)CC(C)(C)C)cc2)cc1" , what activity change, negative = inhibition is on record?
Ans: -12.5% [at 8.39 µM] (inactive)
